- Test system: UACC-257 melanoma
- TEST_NAME: NCI-60 one-dose screen, 48 h (100 = growth as untreated, 0 = no growth, -100 = all killed)
- EXPERIMENTAL_SETUP: 10 µM unless noted
Compounds without any hit were thinned out: in the full panel of roughly 83,000, 20% have a hit.
PARAMETER_MEASURED: growth (%)
# value in %; strip the unit string

Entry CNS(=O)(=O)N1CCc2c(Br)c3c(c(OC)c2C1CCc1ccccc1)OCO3 (stereo not drawn) has what growth?
-24.5

For the compound O=C(Cn1c(/C=C/c2ccc([N+](=O)[O-])cc2)nc2ccccc2c1=O)Nc1ccccc1 , what growth is on record?
101

Please look up its growth: CS(=O)(=O)Nc1cncc(-c2ccc3ncnc(NCc4ccccc4)c3c2)c1
74.5

Name the reported growth value associated with the compound O=C(CSc1nnc(-c2ccc(-c3nc4ccc(Cl)cc4[nH]3)cc2)o1)Nc1ccc(Cl)cc1
3.38

Any idea what its growth is? The compound is COc1ccc(S(=O)(=O)Nc2ccc(-c3ccc4c(c3)NC(=O)/C4=C\c3ccc[nH]3)cc2)cc1OC
-10.7

Look up growth for this compound: C[C@@H]1[C@H]2C[C@@H](C[C@H]1NCc1nc3ccccc3n1C1CCCCCC1)C2(C)C
64.7

Bench note: what growth did O=C(c1ccc(Cl)cc1)C1[C@H](c2ccccc2Cl)[C@@H](c2ccccc2)NC12C(=O)Nc1ccccc12 (stereo partly drawn) show?
1.79

Return reported growth; argument: COc1ccccc1NC(=O)N/N=C/c1c[nH]c2ccccc12
54.6

Would you mind telling me what growth value was observed for CN(C(=O)CN1C(=O)/C(=C/c2ccco2)SC1=S)C1CCS(=O)(=O)C1 (stereo not drawn) ?
96.4

Recorded growth for O=C(Nc1ccc(Br)cc1)Nc1ccc(-c2ccc3c(c2)NC(=O)/C3=C\c2ccc[nH]2)cc1 , please?
75.4

Find the recorded growth belonging to COc1cncc(-c2ccc3ncnc(N4CCc5ccc(Cl)cc54)c3c2)c1 and report it.
63.5

Recorded growth of COc1cc2cc(C(=O)N3C[C@@H](CCl)c4c3cc(OC(=O)N(CCC(=O)N3CCN(C)CC3)[C@H]3CCSSC3)c3ccccc43)[nH]c2c(OC)c1OC , please.
-61.9

Consider the compound shown here: COc1ccc(SC2c3cc(OC)ccc3Oc3nc(N)c(C#N)c(N)c32)cc1 (stereo not drawn) What is its recorded growth?
120

Would you kindly share the measured growth for COc1ccc(-c2cc(C(=O)N=Nc3c(O)[nH]c4ccc(Cl)cc34)c3ccccc3n2)cc1OC ?
115

Request the reported growth associated with CC(C)(C)c1cc(-c2cc(-c3ccccc3)[nH]c(=O)c2C#N)cc(C(C)(C)C)c1
43.1

Sample CS(=O)(=O)Nc1cccc(-n2cnc3cc(-c4ccc(O)cc4)ccc32)c1 — what was its growth?
70.5

Dear colleague, I am looking for the recorded growth of the following compound: COc1ccc(NC(=O)Cn2c(/C=C/c3ccc([N+](=O)[O-])cc3)nc3ccccc3c2=O)cc1
86.3

I would be grateful if you could share the reported growth for O=C(NC(=S)N1CCN(c2ncnc3c2cnn3-c2ccccc2)CC1)c1ccc(Br)cc1 .
88.7

# growth lookup, item O=C1/C(=C/c2cnc(-c3ccccc3)s2)SC(=S)N1Cc1ccc2c(c1)OCO2
108

I have this compound here, COc1ccc2nc(NC(=O)c3ccc(N(C)C)cc3)sc2c1 , and I need its recorded growth.
80.6

Look up growth for this compound: Nc1nc2cc(-c3ccc4ncnc(NCc5ccccc5)c4c3)ccc2o1
68.4

# get_value(readout='growth', item= FC(F)(F)c1cc2c(Cl)ncnc2n1CCC1CCOCC1 )
37.6

Record request: growth value, item C#CCN(C)CCCOc1ccc(N(C)C(=O)c2cc(C(C)C)c(O)cc2O)cc1Cl
9.35

Bench note: what growth did C/C(=N/O)c1ccc(NC(=O)CSc2nnc(-c3ccc4nc(-c5ccc(Cl)cc5)[nH]c4c3)o2)cc1 show?
97.4

Entry CN(C)C(=O)c1cc(-c2ccc3ncnc(N4CCc5cc(F)c(Cl)cc54)c3c2)cnc1N : reported growth = ?
4.11

# lookup: growth of OC(c1ccccc1)(c1ccccc1)C1CCN(c2ccc3nnc(Cl)n3n2)CC1
72.9

Entry under review: CCOC(=O)c1ccc(NC(=S)NC(=O)c2ccc(NC(=O)C(C)C)cc2OC)cc1 . Reported growth?
42

Could you tell me which growth is on file for COc1ccccc1NC(=O)c1ccc(NC(=O)CCl)s1 ?
10.6

Requested field: growth. Item: Cc1nc2sccn2c1-c1nnc(SCc2ccccc2)o1
94

Looking for the measured growth of CN1CCN(C(=O)Oc2cc3c(c4ccccc24)[C@H](CCl)CN3C(=O)c2cc3cc(OCCCN4CCC4)ccc3[nH]2)[C@H]2CSSC[C@H]21 , can you help?
-15.6

I am curious: what growth value has been reported for CC(=O)c1ccc2c(N)c(C(=O)Nc3ccc(C(F)(F)F)cc3)sc2n1 ?
59.5

For the compound CC(C)C[C@H](NC(=O)CNC(=O)C[C@H]1O[C@@H]2OC3(C)CC[C@H]4[C@H](C)CC[C@@H]([C@H]1C)[C@@]24O3)B(O)O , what growth is on record?
-52.1

What does the data say about its growth? Entry: COc1ccc2[nH]c(=O)c(CSc3ccccc3Nc3nccc(-c4ccc5c(c4)OCO5)n3)cc2c1
96.6

Item under review: NNc1ncnc2sc3c(c12)CCN(Cc1ccccc1)C3 . Reported growth?
47

GET /values?readout=growth&item= COc1cc(NC(=O)C(C)C)ccc1C(=O)NC(=S)Nc1ccc(S(N)(=O)=O)cc1
101

Return reported growth; argument: COc1ccc(NC2=C(I)C(=O)C(C)=C(C)C2=O)cc1
-14.2

Which growth value is on record for COc1cccc(/C=C/c2nc3ccccc3c(=O)n2CC(=O)Nc2ccccc2)c1 ?
67.8

Data request, read-out growth, for NC(=O)c1ccc(-c2ccc3ncnc(N4CCc5cc(F)c(Cl)cc54)c3c2)cn1
110

* * *

- Test system: PC-3 prostate
- TEST_NAME: NCI-60 one-dose screen, 48 h
- EXPERIMENTAL_SETUP: 10 µM unless noted
This is part of a sample that, as a whole, favours compounds with a hit. Of some 83,000 tested, about 20% had one in any assay. Activity calls are given as the source filed them. How the source made its calls: active means growth percent below 10; inactive means the rest.
Give one outcome, nothing more. List: T = active, F = inactive

Each molecule tested received a call. Report the one for O=C(Nc1ccc(-c2ccc3c(c2)NC(=O)/C3=C\c2ccc[nH]2)cc1)Nc1ccc(Cl)c(Cl)c1 .
F

What did this assay record as the result for O=C(Nc1ccc(Br)cc1)Nc1ccc(-c2ccc3c(c2)NC(=O)/C3=C\c2ccc[nH]2)cc1 ?
F

Identify the outcome logged in this assay for the molecule shown: COc1ccc(/C=C/c2nc3ccccc3n3c(-c4cccc([N+](=O)[O-])c4)nnc23)cc1
T

Which outcome was entered for the molecule CC(=O)c1c2c(c3ccc4c5ccccc5ccc4n13)C(=O)c1ccccc1C2=O in this test?
F

For Cc1ccc(N=Nc2c(N)nn3c(-c4cc5cc(Br)ccc5oc4=O)ccnc23)cc1 , what call appears in the results of this test?
F

Fill in: this test's call for C[C@@H](Nc1c(C#N)cnc2ccc(-c3cnc4[nH]ncc4c3)cc12)c1ccccc1 is ___
F

Would you mind telling me which call this test gave COc1ccc(Nc2nnc(-c3c[nH]c4ccccc34)o2)cc1 ?
F

State the result this test recorded for COC(=O)c1c(C(=O)OC)c2c3ccccc3c3ccccc3n2c1C(=O)C(F)(F)F .
F

Outcome logged for COC(=O)c1cc(C(=O)C(Br)Br)n2c1ccc1c3ccccc3ccc12 in this assay:
F

* * *

- System: NCI-H226 lung
- TEST_NAME: NCI-60 one-dose screen, 48 h
- EXPERIMENTAL_SETUP: 10 µM unless noted
About 83,000 compounds went through this panel and 20% of them were active in at least one assay; those are over-represented in the sample as a whole. Calls of active or inactive are those of the source. How the source made its calls: active means growth percent below 10; inactive means the rest.
Field 'call' accepts active, inactive

Status in this test for COc1c(F)ccc(C(=O)Nc2ccc3nc(NC(=O)C4CCCN(S(=O)(=O)c5ccc(C(C)(C)C)cc5)C4)sc3c2)c1F (stereo not drawn) ?
inactive

Per the records of this test, what outcome belongs to Cc1ccc(C(=O)Nc2cc(-n3ccnc3)cc(C(F)(F)F)c2)cc1-n1cc(-c2cnc3cccnn23)nn1 ?
inactive

Would you mind telling me which call this test gave CN1CCN(C(=O)CCN(C(=O)Oc2cc3c(c4ccccc24)[C@H](CCl)CN3C(=O)c2cc3cc(OCCCN4CCC4)ccc3[nH]2)[C@H]2CCSSC2)CC1 ?
active

Which result was noted for this compound in the test: NS(=O)(=O)c1ccc(N2N=C(c3ccc(NC(=O)Nc4ccccc4)cc3)CC2c2ccc(Br)cc2)cc1 (stereo not drawn)
active

# lookup: test call for Cc1ccc2nc(SCc3ccccc3F)n(-c3ccccc3)c(=O)c2c1
inactive

Check the results log: what was the call for COc1ccc(-c2nc3ccc(-c4nnc(SCc5ccccc5)o4)cc3[nH]2)cc1OC ?
active

Check the results log: what was the call for COc1cc(C=O)ccc1OC(=O)c1cc(-c2ccc(C)cc2)n(-c2ccc(S(C)(=O)=O)cc2)n1 ?
inactive

# outcome recorded in this test, key = COc1cc(C2CC(c3ccc(S(=O)(=O)NCCNc4nc(N(C)C)nc(N5CCOCC5)n4)cc3)=Nc3c(N)nc(N)nc3N2)cc(OC)c1OC (stereo not drawn)
inactive

// return assay outcome for Nc1nnc(-c2cncc(Br)c2)c(-c2c[nH]c3ccc(Br)cc23)n1
inactive

How was Cc1nn(-c2ccccc2)c2ncn(CC(=O)N/N=C/c3ccccc3O)c(=O)c12 classified in this test?
inactive

Record lookup: outcome of this test for CS(=O)(=O)Nc1cc(-c2ccc3ncnc(N4CCc5cc(F)c(Cl)cc54)c3c2)cnc1Cl ?
active

What classification did O=C(N/N=C/c1ccc(Cl)cc1)c1ccc(OCc2nc3ccc(Cl)cc3[nH]2)cc1 end up with in this test?
inactive

Check the results log: what was the call for COc1ccc(S(=O)(=O)Nc2ccc(-c3ccc4c(c3)NC(=O)/C4=C\c3ccc[nH]3)cc2)cc1OC ?
active

Which result was noted for this compound in the test: O=C(N/N=C/c1ccc(B(O)O)s1)c1[nH]c2ccc(Br)cc2c1-c1ccccc1
active

Lab log entry: CS(=O)(=O)Nc1cc(-c2ccc3ncnc(Nc4ccc(OCc5cccnc5)c(Cl)c4)c3c2)cnc1Cl — outcome as called in the assay?
inactive

Name the outcome recorded for Fc1cccc(CNc2nc(SCCN3CCOCC3)nc3c2cnn3CC(Cl)c2ccc(Br)cc2)c1 (stereo not drawn) in the assay.
inactive

Assay outcome for COc1cc(CNC(=O)C[C@H](C)CCC=C(C)C)ccc1OCc1cn(-c2ccccc2F)nn1 : what was it?
inactive

Look up the recorded call for Nc1cc2ccccc2c(=O)n1NC(=O)c1ccccc1 in this test.
inactive

What is the recorded call for this compound in the test? COc1ccc(-c2cc(C)nc3[nH]c(=O)sc23)cc1
inactive

Tell me the assay call for COc1ccc(N=Nc2c(N)nn3c(-c4cc5ccccc5oc4=O)ccnc23)cc1 please.
active

Short answer needed: outcome of this test for Cc1ccc(/C=C/C(=O)c2ccc(S(=O)(=O)NCCNc3nc(N(C)C)nc(N4CCOCC4)n3)cc2)cc1 ?
inactive

Hey, what did the test say about NNc1ncnc2sc3c(c12)CCN(Cc1ccccc1)C3 ?
inactive

Identify the outcome logged in this assay for the compound shown: O=C1N/C(=N\c2nccs2)S/C1=C\c1ccc([N+](=O)[O-])cc1
active

Hey, what did the test say about Clc1ccccc1Nc1nnc(-c2c[nH]c3ccccc23)o1 ?
inactive

Just curious, what result did CCCCCCCCc1ccc(C(=O)Nc2ccc(C)c(OP(=O)(O)O)c2)cc1 get here?
inactive

// return assay outcome for O=C(c1ccc(O)cc1)C1[C@H](c2ccccc2Br)[C@@H](c2ccccc2)NC12C(=O)Nc1ccccc12 (stereo partly drawn)
inactive

Per the records of this test, what outcome belongs to Cc1cccc(/C=C/c2ccc(NC(=S)NCCCCN(C)C)cc2)c1 ?
active

How was FC(F)(F)c1cc2c(Cl)ncnc2n1CCN1CCOCC1 classified in this test?
inactive

Entry N#Cc1ccc(C(=O)CSc2nc3c(c(Nc4ccc(S(N)(=O)=O)cc4)n2)CCC3)cc1 : call = ?
inactive

What outcome does the record of this test show for O=C(CSc1nnc(-c2ccc(-c3nc4ccc(Cl)cc4[nH]3)cc2)o1)Nc1ccc(Br)cc1 ?
active

Please indicate how the test categorized C#CCN(C)CCCOc1ccc(N(C)C(=O)c2cc(C(C)C)c(O)cc2O)cc1Cl .
inactive

Fill in: this test's call for Cc1cccc(C)c1Nc1nnc(-c2c[nH]c3ccccc23)o1 is ___
inactive

For Cn1cc(-c2cc3nc(-c4c[nH]c5ccccc45)cc(N)n3n2)c2ccccc21 , what call appears in the results of this test?
active

Entry CCCSc1nnc(-c2c(C)nc3sccn23)o1 : call = ?
inactive

GET /call?item= Clc1ccc2c(NCCNC34CC5CC(CC(C5)C3)C4)ccnc2c1 returns the recorded outcome of this test.
active

// param item: Cc1ccc(C(C)C)cc1Oc1cccc(-c2c(-c3ccc(C(F)(F)F)cc3)ncn2C2CCNCC2)n1 ; yields the recorded call
active

For O=C(N/N=C/c1c[nH]c2ccccc12)Nc1ccc(F)c(Cl)c1 , what call appears in the results of this test?
inactive

# outcome recorded in this test, key = COc1ccc2[nH]c(O)c(N=Nc3nc(-c4ccc(Cl)cc4)cs3)c2c1
active
